EC50 values for the molecules below.
assay system: RNA-binding protein pos-1 (Caenorhabditis elegans, UniProt G5EF15)
Sequence (G5EF15 whole entry, the tested form may be a part): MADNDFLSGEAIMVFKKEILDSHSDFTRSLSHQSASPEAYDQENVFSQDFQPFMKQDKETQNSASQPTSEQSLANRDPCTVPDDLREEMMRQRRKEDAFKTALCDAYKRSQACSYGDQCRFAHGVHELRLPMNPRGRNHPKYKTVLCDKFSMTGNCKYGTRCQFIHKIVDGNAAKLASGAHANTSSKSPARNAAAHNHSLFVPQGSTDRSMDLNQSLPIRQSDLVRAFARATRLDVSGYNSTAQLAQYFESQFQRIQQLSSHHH
assay text: disruptors of C. elegans POS-1 RNA interaction – biochemical, fluorescence polarization, dose response (AID 1964);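 note: purified POS-1 fused to maltose binding protein made in E. coli; potency of compounds blocking POS-1 binding to fluorescent RNA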
Calls of active or inactive are those of the source. Cut-off read from the data, not from the text of the source: actives have a measured EC50 and inactives only a lower limit.

> print(dat)
                                   molecule     experimental.value
1         C[C@@H]1Cc2c(O)c(O)cc(O)c2C(=O)O1        104 µM (active)
2  CCn1cc(C=C2C(=O)N(C)C(=O)N(C)C2=O)c2ccccc21  > 300 µM (not active)
3  COc1ccccc1C1C(C(C)=O)=C(C)N=c2s/c(=C\c3cc(OC)c(OC)c(OC)c3)c(=O)n21 (centres undefined)  > 300 µM (not active)

Please find the next molecule below.
Tested on RNA-binding protein pos-1 (Caenorhabditis elegans, UniProt G5EF15), the item COc1ccccc1NC(=O)/C(C#N)=C/c1cc([N+](=O)[O-])ccc1N1CCCC1 showed EC50 equal to 7.27 µM (inconclusive)
